meta.source: patent US20040023884A1

Recorded measurements of C. albicans: pmol required for 30 mm^2 zone, one per entry
Tested on: C. albicans
Experiment: Radial diffusion fungicidal assay, Candida albicans
Format: cell-based
Conditions: radial diffusion
Ends that are not written are not given here.

The measured C. albicans: pmol required for 30 mm^2 zone associated with IKISGKWKAQKRFLKKSKVGWLIQLFHKK [BPI.63] reads >1006.34 pmol

The measured C. albicans: pmol required for 30 mm^2 zone associated with KSKVGWLIQLFHKKKSKVGWLIQLFHKK-NH2 (C-terminus assumed) [BPI.29] reads >1469.25 pmol

---

Tested on: C. albicans
Assay: Radial diffusion fungicidal assay, Candida albicans
Assay type: cell-based
Conditions: radial diffusion
Ends that are not written are not given here.
Could you please mark true (1) for values of C. albicans: pmol required for 30 mm^2 zone below 300 pmol and false (0) for values at or above it?

Example entries and their recorded answers appear below.
KSKAGWLIQLFHKK [BPI.34]: false (0)
KSKVGWLAQLFHKK [BPI.38]: false (0)
KSKVGWLIQAFHKK [BPI.40]: true (1)
KSKVGWLIQLFHAK [BPI.43]: false (0)
KSKVGWLIQLFHKK-NH2 (C-terminus assumed) [BPI.13]: true (1)
KSKVGWAIQLFHKK [BPI.37]: true (1)

Inquiry: Threshold test, C. albicans: pmol required for 30 mm^2 zone < 300 pmol: KSKVAWLIQLFHKK [BPI.35]
Reply text: false (0)

Inquiry: Threshold test, C. albicans: pmol required for 30 mm^2 zone < 300 pmol: KSKVGWLILLFHKK [BPI.86]
Reply text: false (0)

---

Tested on: C. albicans
Assay: Radial diffusion fungicidal assay, Candida albicans
Type: cell-based
Conditions: radial diffusion
Ends that are not written are not given here.
Recorded measurements of C. albicans: pmol required for 30 mm^2 zone, one per entry
Please reply with the bare figure in pmol and do not write the unit itself.

KSKVGWLIKLFHKK [BPI.92]: 298.72

The measured C. albicans: pmol required for 30 mm^2 zone associated with KSKVGWLIALFHKK [BPI.39] reads 1791.81
